target: T1, Fc-tagged human TSLP antigen (huTSLP-Fc) (human, biotin-labeled in the blocking assays); experiment: competition ELISA: blocks TSLP binding to TSLP receptor
T1 construct: whole entry named; also called recombinant human TSLP-Fc
// reported IC50 for each item listed
Output spec: scalar in nM, unitless text.

Worked examples, 2 binders total:
- BINDER: "hu199-28 (antibody, human IgG1, kappa, V domains shown, IgG1-YTE, kappa) VH: EVQLVQSGAEVKKPGASVKVSCKASGYTFTTYWMHWVKQAPGQGLEWMGMIDPSDSETTLIQKFKDKVTMTVDKSTSTAYMELSSLRSEDTAVYYCARTLDGYYDYWGQGTTVTVSS VL: DIQMTQSPSSLSASVGDRVTITCRASENIYSYLAWYQQKPGKAPKLLIYFAKTLAEGVPSRFSGSVSGTDFTLTISSLQPEDFATYYCQHHYGTPWTFGGGTKVEIKR"
  UNIT: "nM"
  IC50: 0.462
- BINDER: "hu199-22 (antibody, human IgG1, kappa, V domains shown, IgG1-YTE, kappa) VH: EVQLVQSGAEVKKPGASVKVSCKASGYTFTTYWMHWVKQAPGQGLEWIGMIDPSDSETTLIQKFKDKATLTVDKSTSTAYMELSSLRSEDTAVYYCARTLDGYYDYWGQGTTVTVSS VL: DIQMTQSPSSLSASVGDRVTITCRASENIYSYLAWYQQKPGKAPKLLIYFAKTLAEGVPSRFSGSVSGTDFTLTISSLQPEDFATYYCQHHYGTPWTFGGGTKVEIKR"
  UNIT: "nM"
  IC50: 0.345

// next entry
Asked: Name the reported IC50 value associated with the binder hu199-21 (antibody, human IgG1, kappa, V domains shown, IgG1-YTE, kappa) VH: EVQLVQSGAEVKKPGASVKVSCKASGYTFTTYWMHWVKQAPGQGLEWIGMIDPSDSETTLIQKFKDKATLTVDKSTSTAYMELSSLRSEDTAVYYCARTLDGYYDYWGQGTTVTVSS VL: DIQMTQSPSSLSASVGDRVTITCRASENIYSYLAWYQQKPGKSPQLLVYFAKTLAEGVPSRFSGSGSGTQFTLTISSLQPEDFATYYCQHHYGTPWTFGGGTKVEIKR
Given back: 0.535
